Cited source for all entries: ChEMBL document CHEMBL1138574

System: MOLT-4
Experiment: Antitumor activity against human MOLT4 cells assessed as cell growth at 10 uM after 48 hrs by sulforhodamine B assay
Type: functional
Details: MOLT-4, 48 h, read-out: Activity
observable: growth at 10 µM

I'm curious: which growth at 10 µM was measured for `CN1C/C(=C\c2ccc(-c3cccs3)cc2)C(=O)[C@]2(C1)[C@@H](c1ccc(-c3cccs3)cc1)CN(C)[C@@]21C(=O)N(C)c2ccccc21` tested on MOLT-4?
27.2%

I'm curious: which growth at 10 µM was measured for `COc1ccc(/C=C2\CN(C)C[C@@]3(C2=O)[C@@H](c2ccccc2)CN(C)[C@@]32C(=O)Nc3ccccc32)cc1` tested on MOLT-4?
17.2%

I'm curious: which growth at 10 µM was measured for `CN1C/C(=C\c2ccc(Cl)cc2)C(=O)[C@]2(C1)[C@@H](c1ccc(Cl)cc1)CN(C)[C@@]21C(=O)Nc2ccccc21` tested on MOLT-4?
37.4%

I'm curious: which growth at 10 µM was measured for `CN1C/C(=C\c2ccc(Cl)cc2)C(=O)[C@]2(C1)[C@@H](c1ccc(Cl)cc1)CN(C)[C@@]21C(=O)N(C)c2ccccc21` tested on MOLT-4?
43.2%

----------
Test system: Rattus norvegicus
Assay: Antiinflammatory activity in Wister albino rat assessed as inhibition of carrageenan-induced paw oedema at 50 mg/kg, ip administered 1 hr before carrageenan challenge measured after 4 hrs of induction of inflammation relative to control
Type: functional
Conditions: route intraperitoneal
observable: inhibition in vivo at 50 mg/kg (%)
Form entry: value (%) — number only.

Report inhibition in vivo at 50 mg/kg for `CN1C/C(=C\c2ccc(Br)cc2)C(=O)[C@]2(C1)[C@@H](c1ccc(Br)cc1)CN(C)[C@@]21C(=O)N(C)c2ccccc21` please.
46.8

Report inhibition in vivo at 50 mg/kg for `CN1C/C(=C\c2ccc(F)cc2)C(=O)[C@]2(C1)[C@@H](c1ccc(F)cc1)CN(C)[C@@]21C(=O)N(C)c2ccccc21` please.
47.2

Report inhibition in vivo at 50 mg/kg for `CN1C/C(=C\c2ccccc2)C(=O)[C@]2(C1)[C@@H](c1ccccc1)CN(C)[C@@]21C(=O)Nc2ccccc21` please.
70.9

Report inhibition in vivo at 50 mg/kg for `CN1C/C(=C\c2ccc(Cl)cc2)C(=O)[C@]2(C1)[C@@H](c1ccc(Cl)cc1)CN(C)[C@@]21C(=O)Nc2ccccc21` please.
42.2

----------
Test system: SNB-75
Test: Antitumor activity against human SNB75 cells assessed as cell growth at 10 uM after 48 hrs by sulforhodamine B assay
Assay type: functional
Details: SNB-75, 48 h, read-out: Activity
observable: growth at 10 µM

Report growth at 10 µM for `CN1C/C(=C\c2ccc(Cl)cc2)C(=O)[C@]2(C1)[C@@H](c1ccc(Cl)cc1)CN(C)[C@@]21C(=O)Nc2ccccc21` please.
56.7%

Report growth at 10 µM for `CN1C/C(=C\c2ccc(-c3cccs3)cc2)C(=O)[C@]2(C1)[C@@H](c1ccc(-c3cccs3)cc1)CN(C)[C@@]21C(=O)N(C)c2ccccc21` please.
64.5%

Report growth at 10 µM for `COc1ccc(/C=C2\CN(C)C[C@@]3(C2=O)[C@@H](c2ccccc2)CN(C)[C@@]32C(=O)Nc3ccccc32)cc1` please.
59.4%

Report growth at 10 µM for `CN1C/C(=C\c2ccc(Cl)cc2)C(=O)[C@]2(C1)[C@@H](c1ccc(Cl)cc1)CN(C)[C@@]21C(=O)N(C)c2ccccc21` please.
65.2%
